Reference for the values: ChEMBL document CHEMBL5247651

Could you please report measured pEC50 for the items listed next?
- PROTOCOL NOTES: Induction of mitochondrial uncoupling activity in rat L6 cells assessed as increase in oxygen consumption rate measured after 90 mins by agilent Seahorse XF analyzer
- Type: functional, cell-based
Answers are plain numbers.

Sample answers from the record:
SMILES RECORD: Oc1nc2nonc2cc1Nc1cc(F)cc(F)c1
pEC50: 4.3

SMILES RECORD: Oc1nc2nonc2cc1Nc1ccc(OC(F)(F)F)cc1F
pEC50: 5.8

SMILES RECORD: Oc1nc2nonc2cc1Nc1cc(C(F)(F)F)ccc1C(F)(F)F
pEC50: 5.7

SMILES RECORD: Oc1nc2nonc2cc1Nc1cccc(OC(F)(F)F)c1F
pEC50: 5.9

SMILES RECORD: Oc1nc2nonc2cc1Nc1cc(F)c(C(F)(F)F)cc1F
pEC50: 6.1

// sample `Oc1nc2nonc2cc1Nc1ccc(F)cc1C(F)(F)F` , its pEC50 was 5.3

====

- PROTOCOL NOTES: Observed apparent volume of distribution in C57BL/6 mouse at 1 mg/kg, iv measured upto 24 hrs by LC/MS-MS analysis
- Format: ADME, organism-based
- RECORDED CONDITIONS: in vivo, read-out: Vz
OBSERVABLE: Vd (L/kg)
Numbers only, in L/kg.

// sample `Oc1nc2nonc2cc1Nc1c(F)c(F)c(F)c(F)c1F` , its Vd was 0.07

====

Could you please report measured Activity for the items listed next?
- PROTOCOL NOTES: Induction of mitochondrial uncoupling activity in rat L6 cells assessed as increase in oxygen consumption rate at 0.37 to 200 uM measured after 90 mins by agilent Seahorse XF analyzer relative to BAM15
- Format: functional
- RECORDED CONDITIONS: dose 0.37-200 µM, 1.5 h
Please state the value followed by its unit.

SMILES RECORD: Oc1nc2nonc2cc1Nc1ccc(F)cc1
RESULT: 6%
--
SMILES RECORD: Oc1nc2nonc2cc1Nc1cccc(C(F)(F)F)c1F
RESULT: 3%

# per-item lookup of Activity; items listed below
1. O=S(=O)(c1ccc(Nc2cc3nonc3nc2O)cc1)C(F)(F)F
2. Oc1nc2nonc2cc1Nc1cccc(C(F)(F)F)c1C(F)(F)F
3. Oc1nc2nonc2cc1Nc1ccc(C(F)(F)F)c(F)c1
4. Oc1nc2nonc2cc1Nc1ccc(C(F)(F)F)nc1
5. Oc1nc2nonc2cc1Nc1cc(OC(F)(F)F)ccc1F

["25%", "11%", "10%", "26%", "59%"]

====

- PROTOCOL NOTES: Observed volume of distribution at steady state in C57BL/6 mouse at 1 mg/kg, iv measured upto 24 hrs by LC/MS-MS analysis
- Assay type: ADME, organism-based
- RECORDED CONDITIONS: in vivo, read-out: Vdss
OBSERVABLE: Vd
Please state the value followed by its unit.

// sample `Oc1nc2nonc2cc1Nc1c(F)c(F)c(F)c(F)c1F` , its Vd was 0.06 L/kg

====

- PROTOCOL NOTES: Half life in C57BL/6 mouse at 10 mg/kg, po administered via gavage measured upto 24 hrs by LC/MS-MS analysis
- Assay type: ADME, organism-based
- RECORDED CONDITIONS: in vivo
Could you please report measured t1/2 for the items listed next?
Give bare numbers, in h.

# per-item lookup of t1/2; items listed below
1. Oc1nc2nonc2cc1Nc1c(F)c(F)c(F)c(F)c1F
2. Oc1nc2nonc2cc1Nc1cc(C(F)(F)F)ccc1F
3. Oc1nc2nonc2cc1Nc1c(F)c(F)c(C(F)(F)F)c(F)c1F
4. Oc1nc2nonc2cc1Nc1cc(C(F)(F)F)c(F)cc1F
5. Oc1nc2nonc2cc1Nc1cc(C(F)(F)F)ccc1C(F)(F)F

1: 1.2; 2: 1; 3: 15.6; 4: 1.3; 5: 2.2
